I'd be grateful if you could share measured inhibition at 10 µM for these entries.
# Tested target: dopamine transporter (DAT) (Homo sapiens)
# Construct: expressed in transfected cells; host or cells: CHO cells (membrane fractions)
# Test: Competitive radioligand binding assay, dopamine transporter (antagonist radioligand)
# Run conditions: Dopamine transporter; compound at 10 μM; 2nd individual result; read-out: % inhibition of control specific binding, 2nd
Where a name gives a salt, the structure may show the parent alone.

Sample answers from the record:
Note to self: inhibition at 10 µM recorded for NC(=S)OC[C@H](N)Cc1ccccc1 [Compound 8, dihydrochloride] was 95.4%

Note to self: inhibition at 10 µM recorded for NC(=O)CC[C@H](N)Cc1ccccc1 [Compound 4, hydrochloride] was 60%

Note to self: inhibition at 10 µM recorded for NC(=O)OC[C@H](N)Cc1ccccc1 [APC, (R)-2-amino-3-phenylpropyl carbamate, reference compound] was 81.1%

Parameters: items (list). Returns: inhibition at 10 µM for each item.
1. NC(=O)NC[C@H](N)Cc1ccccc1 [Compound 3, hydrochloride]
2. N[C@@H](COS(N)(=O)=O)Cc1ccccc1 [Compound 9, hydrochloride]
3. NC(=O)SC[C@H](N)Cc1ccccc1 [Compound 10, hydrochloride]

90.5%
44%
87.3%

----------
# Tested target: serotonin (5-HT) transporter (SERT) (Homo sapiens, UniProt P31645)
# Construct: expressed in transfected cells; host or cells: CHO cells (membrane fractions)
# Sequence (P31645 whole entry): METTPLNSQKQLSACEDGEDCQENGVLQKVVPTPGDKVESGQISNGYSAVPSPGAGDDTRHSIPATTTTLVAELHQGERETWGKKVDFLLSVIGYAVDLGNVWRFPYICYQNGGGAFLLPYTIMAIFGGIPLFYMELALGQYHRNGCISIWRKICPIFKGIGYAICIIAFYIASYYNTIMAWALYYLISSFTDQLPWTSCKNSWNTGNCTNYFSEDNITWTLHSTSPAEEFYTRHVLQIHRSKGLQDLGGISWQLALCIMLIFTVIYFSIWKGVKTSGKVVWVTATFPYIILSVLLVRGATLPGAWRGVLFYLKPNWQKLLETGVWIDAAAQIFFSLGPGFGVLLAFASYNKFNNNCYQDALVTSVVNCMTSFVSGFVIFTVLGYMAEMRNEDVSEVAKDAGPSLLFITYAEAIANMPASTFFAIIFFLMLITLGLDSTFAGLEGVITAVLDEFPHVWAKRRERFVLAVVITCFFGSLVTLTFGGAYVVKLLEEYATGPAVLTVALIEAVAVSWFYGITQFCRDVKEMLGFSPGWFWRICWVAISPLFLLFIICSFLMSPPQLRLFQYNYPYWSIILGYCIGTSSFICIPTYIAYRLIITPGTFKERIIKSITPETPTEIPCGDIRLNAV
# Test: Competitive radioligand binding assay, 5-HT transporter (antagonist radioligand)
# Run conditions: 5-HT transporter; compound at 10 μM; 2nd individual result; read-out: % inhibition of control specific binding, 2nd
Where a name gives a salt, the structure may show the parent alone.
Measurement label: inhibition at 10 µM (%)
One number for each entry, in %.

Sample answers from the record:
Here NC(=S)OC[C@H](N)Cc1ccccc1 [Compound 8, dihydrochloride] was tested on serotonin (5-HT) transporter (SERT) (Homo sapiens, UniProt P31645), and its inhibition at 10 µM came to -2.4

Here NC(=O)OC[C@H](N)Cc1ccccc1 [APC, (R)-2-amino-3-phenylpropyl carbamate, reference compound] was tested on serotonin (5-HT) transporter (SERT) (Homo sapiens, UniProt P31645), and its inhibition at 10 µM came to -3.3

Here NC(=O)NC[C@H](N)Cc1ccccc1 [Compound 3, hydrochloride] was tested on serotonin (5-HT) transporter (SERT) (Homo sapiens, UniProt P31645), and its inhibition at 10 µM came to -0.4

Here N[C@@H](COS(N)(=O)=O)Cc1ccccc1 [Compound 9, hydrochloride] was tested on serotonin (5-HT) transporter (SERT) (Homo sapiens, UniProt P31645), and its inhibition at 10 µM came to -3.7

Here NC(=O)CC[C@H](N)Cc1ccccc1 [Compound 4, hydrochloride] was tested on serotonin (5-HT) transporter (SERT) (Homo sapiens, UniProt P31645), and its inhibition at 10 µM came to 1.8

Further cases:
Here NC(=O)SC[C@H](N)Cc1ccccc1 [Compound 10, hydrochloride] was tested on serotonin (5-HT) transporter (SERT) (Homo sapiens, UniProt P31645), and its inhibition at 10 µM came to 22

----------
# Tested target: D2S dopamine receptor (D2S) (Homo sapiens)
# Construct: expressed in transfected cells; host or cells: HEK-293 cells (membrane fractions)
# Sequence (P14416 1-414 isoform P14416-2): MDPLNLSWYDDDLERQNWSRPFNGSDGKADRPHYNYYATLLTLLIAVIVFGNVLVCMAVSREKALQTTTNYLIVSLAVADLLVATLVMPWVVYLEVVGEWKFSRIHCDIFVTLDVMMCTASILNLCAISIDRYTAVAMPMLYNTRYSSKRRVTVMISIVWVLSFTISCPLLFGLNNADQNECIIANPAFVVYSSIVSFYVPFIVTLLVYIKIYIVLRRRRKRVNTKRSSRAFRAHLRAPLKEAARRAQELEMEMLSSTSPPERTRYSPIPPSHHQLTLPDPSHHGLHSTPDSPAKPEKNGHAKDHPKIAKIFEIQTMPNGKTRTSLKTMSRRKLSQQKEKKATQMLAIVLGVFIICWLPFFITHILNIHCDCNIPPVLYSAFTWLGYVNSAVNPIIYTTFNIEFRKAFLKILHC
# Test: Competitive radioligand binding assay, D2S (agonist radioligand)
# Run conditions: D2S; compound at 10 μM; 2nd individual result; read-out: % inhibition of control specific binding, 2nd
Where a name gives a salt, the structure may show the parent alone.
Measurement label: inhibition at 10 µM (%)
Numbers only, in %.

Sample answers from the record:
Note to self: inhibition at 10 µM recorded for N[C@@H](COS(N)(=O)=O)Cc1ccccc1 [Compound 9, hydrochloride] was 33.7

Note to self: inhibition at 10 µM recorded for NC(=O)NC[C@H](N)Cc1ccccc1 [Compound 3, hydrochloride] was 0.2

Note to self: inhibition at 10 µM recorded for NC(=O)SC[C@H](N)Cc1ccccc1 [Compound 10, hydrochloride] was 90.5

Note to self: inhibition at 10 µM recorded for NC(=O)CC[C@H](N)Cc1ccccc1 [Compound 4, hydrochloride] was -3.7

Note to self: inhibition at 10 µM recorded for NC(=S)OC[C@H](N)Cc1ccccc1 [Compound 8, dihydrochloride] was 21.4

Further cases:
Note to self: inhibition at 10 µM recorded for NC(=O)OC[C@H](N)Cc1ccccc1 [APC, (R)-2-amino-3-phenylpropyl carbamate, reference compound] was 8.2

----------
# Tested target: D2L dopamine receptor (D2L) (Homo sapiens)
# Construct: expressed in transfected cells; host or cells: HEK-293 cells (membrane fractions)
# Sequence (P14416 whole entry): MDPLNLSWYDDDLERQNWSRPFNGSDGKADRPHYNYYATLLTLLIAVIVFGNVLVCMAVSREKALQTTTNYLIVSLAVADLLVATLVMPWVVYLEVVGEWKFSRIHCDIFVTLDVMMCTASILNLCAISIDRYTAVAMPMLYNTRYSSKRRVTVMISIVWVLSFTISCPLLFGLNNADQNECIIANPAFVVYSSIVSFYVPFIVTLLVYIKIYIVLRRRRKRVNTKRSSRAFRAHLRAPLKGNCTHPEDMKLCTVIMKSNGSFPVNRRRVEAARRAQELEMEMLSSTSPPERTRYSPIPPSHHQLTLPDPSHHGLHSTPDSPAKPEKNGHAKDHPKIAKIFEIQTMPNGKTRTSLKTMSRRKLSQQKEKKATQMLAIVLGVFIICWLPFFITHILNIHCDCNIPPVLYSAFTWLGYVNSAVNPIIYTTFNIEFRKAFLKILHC
# Test: Competitive radioligand binding assay, D2L (antagonist radioligand)
# Run conditions: compound at 10 μM; [3H]methyl-spiperone 0.3 nM; human recombinant (HEK-293 cells); read-out: % Inhibition of Binding at Each Transporter or Receptor Target, D2L
Counter-ions that a name gives are not always drawn.
I'd be grateful if you could share measured inhibition at 10 µM for these entries.
One number for each entry, in %.

Note to self: inhibition at 10 µM recorded for NC(=S)OC[C@H](N)Cc1ccccc1 [Compound 8, dihydrochloride] was 1.1

Parameters: items (list). Returns: inhibition at 10 µM for each item.
1. NC(=O)SC[C@H](N)Cc1ccccc1 [Compound 10, hydrochloride]
2. N[C@@H](COS(N)(=O)=O)Cc1ccccc1 [Compound 9, hydrochloride]
3. NC(=O)CC[C@H](N)Cc1ccccc1 [Compound 4, hydrochloride]

34.7
-4.5
1.1

Parameters: items (list). Returns: inhibition at 10 µM for each item.
1. NC(=O)NC[C@H](N)Cc1ccccc1 [Compound 3, hydrochloride]
2. NC(=O)OC[C@H](N)Cc1ccccc1 [APC, (R)-2-amino-3-phenylpropyl carbamate, reference compound]

[0.5, 2.3]

----------
# Tested target: dopamine transporter (DAT) (Homo sapiens, UniProt Q01959)
# Construct: expressed in transfected cells; host or cells: CHO cells (membrane fractions)
# Sequence (Q01959 whole entry): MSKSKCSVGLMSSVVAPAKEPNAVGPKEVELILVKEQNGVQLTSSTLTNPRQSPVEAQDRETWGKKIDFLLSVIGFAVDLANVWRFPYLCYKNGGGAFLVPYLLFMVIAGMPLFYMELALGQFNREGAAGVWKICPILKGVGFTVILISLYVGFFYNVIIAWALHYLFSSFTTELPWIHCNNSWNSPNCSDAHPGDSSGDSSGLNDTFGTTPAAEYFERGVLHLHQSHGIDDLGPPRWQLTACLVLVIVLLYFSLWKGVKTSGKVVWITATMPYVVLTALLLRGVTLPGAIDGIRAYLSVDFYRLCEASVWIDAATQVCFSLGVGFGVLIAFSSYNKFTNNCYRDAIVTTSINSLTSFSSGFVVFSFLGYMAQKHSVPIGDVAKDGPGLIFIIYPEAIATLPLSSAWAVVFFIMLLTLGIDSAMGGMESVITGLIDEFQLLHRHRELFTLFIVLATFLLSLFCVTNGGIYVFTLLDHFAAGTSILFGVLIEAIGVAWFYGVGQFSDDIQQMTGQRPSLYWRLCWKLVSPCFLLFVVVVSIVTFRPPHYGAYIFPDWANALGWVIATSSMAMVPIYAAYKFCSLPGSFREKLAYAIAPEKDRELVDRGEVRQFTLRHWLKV
# Test: Competitive radioligand binding assay, dopamine transporter (antagonist radioligand)
# Run conditions: Dopamine transporter; compound at 10 μM; 1st individual result; read-out: % inhibition of control specific binding, 1st
Structures can show the parent of a compound that is named as a salt.
Field: label. Allowed values: met (inhibition at 10 µM < 50%) or not met (inhibition at 10 µM >= 50%).

# check: inhibition at 10 µM < 50% for NC(=O)OC[C@H](N)Cc1ccccc1 [APC, (R)-2-amino-3-phenylpropyl carbamate, reference compound]
not met

Further cases:
# check: inhibition at 10 µM < 50% for N[C@@H](COS(N)(=O)=O)Cc1ccccc1 [Compound 9, hydrochloride]
met

# check: inhibition at 10 µM < 50% for NC(=S)OC[C@H](N)Cc1ccccc1 [Compound 8, dihydrochloride]
not met

# check: inhibition at 10 µM < 50% for NC(=O)CC[C@H](N)Cc1ccccc1 [Compound 4, hydrochloride]
not met

# check: inhibition at 10 µM < 50% for NC(=O)NC[C@H](N)Cc1ccccc1 [Compound 3, hydrochloride]
not met

# check: inhibition at 10 µM < 50% for NC(=O)SC[C@H](N)Cc1ccccc1 [Compound 10, hydrochloride]
not met

The measurements presented in this section are drawn from patent US11413264B2.
